Hello, the source for this data is patent US7754739B2, in case you need it.

molecular target: ΔF508-CFTR (Homo sapiens, UniProt P13569, DEL508-508); assay: Membrane potential optical methods for assaying ΔF508-CFTR modulation properties of compounds; conditions: NIH3T3 cells expressing ΔF508-CFTR
Sequence (P13569 with tags, fused parts or gaps DEL508-508): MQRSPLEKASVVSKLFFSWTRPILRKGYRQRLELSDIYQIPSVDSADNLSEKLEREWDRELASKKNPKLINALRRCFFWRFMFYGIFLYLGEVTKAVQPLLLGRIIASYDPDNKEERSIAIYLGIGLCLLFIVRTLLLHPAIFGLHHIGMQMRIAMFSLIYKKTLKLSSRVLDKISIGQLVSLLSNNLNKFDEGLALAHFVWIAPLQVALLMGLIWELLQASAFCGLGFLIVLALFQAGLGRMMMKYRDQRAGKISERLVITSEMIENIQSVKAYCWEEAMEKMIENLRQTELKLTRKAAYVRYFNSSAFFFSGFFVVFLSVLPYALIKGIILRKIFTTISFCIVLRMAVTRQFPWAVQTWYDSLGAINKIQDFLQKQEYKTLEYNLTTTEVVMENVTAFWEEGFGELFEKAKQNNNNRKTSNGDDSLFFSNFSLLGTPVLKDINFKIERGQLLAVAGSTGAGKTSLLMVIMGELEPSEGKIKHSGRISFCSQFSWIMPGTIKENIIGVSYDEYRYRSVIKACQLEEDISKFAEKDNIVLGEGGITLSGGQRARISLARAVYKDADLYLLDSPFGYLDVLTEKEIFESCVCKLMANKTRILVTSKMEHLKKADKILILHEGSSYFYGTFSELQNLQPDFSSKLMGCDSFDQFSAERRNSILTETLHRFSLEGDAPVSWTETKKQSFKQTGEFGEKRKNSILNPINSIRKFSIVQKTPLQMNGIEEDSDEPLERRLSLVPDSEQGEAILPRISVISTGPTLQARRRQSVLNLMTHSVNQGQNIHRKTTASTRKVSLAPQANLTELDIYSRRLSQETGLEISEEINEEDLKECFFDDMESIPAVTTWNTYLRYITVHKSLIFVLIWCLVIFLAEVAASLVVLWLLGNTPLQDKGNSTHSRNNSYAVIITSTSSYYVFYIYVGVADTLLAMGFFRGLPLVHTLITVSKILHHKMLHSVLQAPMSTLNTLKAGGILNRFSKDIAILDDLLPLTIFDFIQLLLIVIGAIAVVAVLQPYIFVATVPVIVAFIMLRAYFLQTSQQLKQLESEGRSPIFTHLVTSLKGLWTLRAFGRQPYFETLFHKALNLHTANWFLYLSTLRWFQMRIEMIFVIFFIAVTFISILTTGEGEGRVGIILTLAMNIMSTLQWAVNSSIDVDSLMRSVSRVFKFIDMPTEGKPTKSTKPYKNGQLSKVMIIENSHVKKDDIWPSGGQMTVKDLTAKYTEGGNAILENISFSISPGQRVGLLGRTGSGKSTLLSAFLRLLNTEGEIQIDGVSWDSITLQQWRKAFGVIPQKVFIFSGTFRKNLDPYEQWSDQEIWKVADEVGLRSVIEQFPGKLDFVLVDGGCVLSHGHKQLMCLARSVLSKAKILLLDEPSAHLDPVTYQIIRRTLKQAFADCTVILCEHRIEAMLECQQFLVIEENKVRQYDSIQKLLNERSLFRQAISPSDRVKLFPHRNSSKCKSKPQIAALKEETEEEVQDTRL
pEC50: −log10 of the molar value.
In this section, each of the compounds is paired with its reported pEC50.

| chemicalString | pEC50 |
| --- | --- |
| COc1ccc(C2(C(=O)Nc3ccc(C)c(-c4cccc(C(=O)O)c4)n3)CC2)cc1 | ≥ 5.70 |

Ask | # lookup: pEC50 of Cc1ccc(NC(=O)C2(c3ccc4c(c3)CCO4)CC2)nc1-c1cccc(C(=O)O)c1
Reply | ≥ 5.70
